Ref: PubChem BioAssay (NCI)

tested on: HL-60(TB) leukemia; assay: NCI tumour cell line growth inhibition, 48 h; in the data active = GI50 below about 0.43 µM; inactive = the rest
Just give me one of these, please: active, inactive

Identify the outcome logged in this assay for the compound shown: BrCc1ccc(CBr)cc1 inactive

Cool, now CC1=CC(=O)C(O)C2(C)C1CC(O)C13COC4(C)C(OC(=O)C41)C(O)C23 (configuration not stated) inactive

Cool, now Cc1nc2ccccc2c(/C=C/c2ccc(Br)cc2)c1C(=O)/C=C/c1ccccc1 inactive

Cool, now COc1ccc(C(=O)N2c3ccccc3Sc3ccccc32)c(OC)c1 active

Cool, now CN1CCN(Cc2ccc(NC(=O)c3[nH]ncc3Nc3ncnc4sc5c(c34)CCCC5)cc2)CC1 active

Cool, now COc1ccc(/C=N/NC(=O)Cn2c(-c3ccc(S(C)(=O)=O)cc3)nc3cc(Cl)ccc32)cc1 inactive

Cool, now CC(C)(C)CN1CCn2c(nc3c(N)nccc32)S1 inactive
